- STUDY TARGET: T1, CD137 protein (His-tagged, Sino Biological Inc. 10041-H08H) (human, UniProt Q07011 24-186)
- T1 construct: bought protein coated on ELISA plates; also called 4-1BB; TNFRSF9; not shown: His tag
- ASSAY: ELISA, coated His-tagged CD137; further: test concentration or dose not given here
MEASUREMENT TYPE: ELISA [abs. corr.]

BINDER: P018.S.14.A.G03 (antibody, V domains shown, V regions on human Ig constant parts; also called AB137_11) VH: QSLEESGGRLVTPGTPLTLTCTVSGIDLSSYHMCWVRQAPGKGLEYIGYIAYGGNTYYANWAKGRFTISKTSTTVDLRITSPTTEDTATYFCARGYSEDSYWGLWGPGTLVTVSS VL: AYDMTQTPASVEAAVGGTVTIKCQASQNIENYLAWYQQKPGQPPKLLIYDTSKLTSGVPSRFSGSGSGTDFTLTISGVQSDDAATYYCQQDYGIIFVDNIFGGGTEVVVK
RESULT: 2.07 abs. corr.
--
BINDER: P018.S.14.A.A04 (antibody, V domains shown, V regions on human Ig constant parts; also called AB137_9) VH: QSLEESGGRLVTPGTPLTLTCTVSGFSLNDYWMSWVRQAPGKGLEWIGYIDVGGSLYYASWAKGRFTISRTSTTVDLKMTSLTTEDTATYFCARGGLTYGFDLWGPGTLVTVSS VL: DIVMTQTPASVSEPVGGTVTINCQASEDISSYLAWYQQKPGQRPKRLIYGASDLASGVPSRFSASGSGTEYALTISDLESADAATYYCHYYATISGLGVAFGGGTEVVVK
RESULT: 3.44 abs. corr.
--
BINDER: P018.S.14.A.D06 (antibody, V domains shown, V regions on human Ig constant parts; also called AB137_10) VH: QSVEESGGRLVTPGTPLTLTCTVSGFSLSTYAMIWVRQAPGKGLEWIGVVYDNGYISHATWVKGRFTISKTSTTVGLEITSPTTEDTATYFCARSADGSWSTYFNLWGQGTLVTVSS VL: DIVMTQTPASVEAAVGGTVTIKCQASESISNYLAWYQQKPGQPPKLLIYKASTLASGVSSRFKGSGSGTEFTLTISDLESADAATYYCQTNYCCSSSDNGFAFGGGTEVVVK
RESULT: 2.9 abs. corr.
--
BINDER: P018.S.13.A.G03 (antibody, V domains shown, V regions on human Ig constant parts; also called AB137_7) VH: QSLEESGGRLVTPGTPLTLTCTASGFSLSSYDVSWVRQAPGKGLEYIGFIGSDGSAHYATWVKGRFTISKTSTTVDLKITSPTTEDTATYFCARDWNDYWAHDLWGPGTLVTVSS VL: AQVLTQTTSPVSAAVGGTVTINCQASQIVTSKSALSWYQQKPGQPPRLLIYKASTLASGVPSRFSGSGSGTQFTLTISDLESDDAATYYCAGGYYNSGDLNPFGGGTEVVVK
RESULT: 1.73 abs. corr.
--
BINDER: P018.S.13.A.G04 (antibody, V domains shown, V regions on human Ig constant parts; also called AB137_8) VH: QSLEESGGRLVTPGTPLTLTCTASGFSLSSYDMSWVRQAPGKGLEYIGYISSSGNTYYASWAKSRFTISKTSTTVDLKITSPTTEDTATYFCAREGDYWDFNLWGPGTLVTVSS VL: AQVLTQTPSSVSAAVGGTVTINCQASQSISNLLAWYQQKPGQRPRLLIYRASTLASGVPSRFKGSGSGTEFTLTISDLESEDAATYYCAGGFPGLDTGATFGGGTEAVVT
RESULT: 0.577 abs. corr.
